Target: EGFR (Homo sapiens, UniProt P00533)
Construct: Add 7 ug A431 cell lysate per well (EGFR source); endogenous in cells; host or cells: A431
Sequence (P00533 25-1210): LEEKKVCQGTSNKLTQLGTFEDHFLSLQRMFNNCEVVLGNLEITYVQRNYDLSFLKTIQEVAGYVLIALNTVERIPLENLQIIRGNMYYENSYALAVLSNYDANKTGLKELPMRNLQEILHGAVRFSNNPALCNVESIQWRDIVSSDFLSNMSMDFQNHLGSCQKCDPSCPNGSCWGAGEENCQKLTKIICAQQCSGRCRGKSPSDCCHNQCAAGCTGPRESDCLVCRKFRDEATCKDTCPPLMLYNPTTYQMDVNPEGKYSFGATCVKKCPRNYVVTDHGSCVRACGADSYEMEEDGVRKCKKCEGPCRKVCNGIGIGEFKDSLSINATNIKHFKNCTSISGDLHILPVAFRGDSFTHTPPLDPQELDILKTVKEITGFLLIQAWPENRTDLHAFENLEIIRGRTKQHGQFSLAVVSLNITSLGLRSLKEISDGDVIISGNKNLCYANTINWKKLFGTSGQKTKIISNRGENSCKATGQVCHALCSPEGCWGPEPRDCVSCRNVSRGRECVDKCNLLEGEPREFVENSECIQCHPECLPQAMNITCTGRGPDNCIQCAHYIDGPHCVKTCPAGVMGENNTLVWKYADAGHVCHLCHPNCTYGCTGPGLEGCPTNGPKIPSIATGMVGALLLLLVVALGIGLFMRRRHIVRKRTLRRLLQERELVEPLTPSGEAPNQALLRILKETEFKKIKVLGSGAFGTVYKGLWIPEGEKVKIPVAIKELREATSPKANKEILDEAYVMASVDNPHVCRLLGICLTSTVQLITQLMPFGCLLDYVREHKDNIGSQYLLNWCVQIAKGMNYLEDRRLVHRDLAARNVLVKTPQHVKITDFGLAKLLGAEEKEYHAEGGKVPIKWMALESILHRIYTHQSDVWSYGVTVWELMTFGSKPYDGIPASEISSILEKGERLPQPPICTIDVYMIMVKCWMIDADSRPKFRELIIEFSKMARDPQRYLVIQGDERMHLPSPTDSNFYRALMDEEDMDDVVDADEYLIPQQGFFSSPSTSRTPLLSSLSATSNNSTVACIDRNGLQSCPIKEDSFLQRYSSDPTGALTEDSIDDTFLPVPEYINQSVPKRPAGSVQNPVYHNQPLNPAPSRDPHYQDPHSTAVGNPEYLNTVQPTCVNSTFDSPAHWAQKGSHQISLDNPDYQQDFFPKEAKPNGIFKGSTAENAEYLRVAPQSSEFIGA
Assay: EGFR ELISA assay (in vitro kinase activity, EGFR captured from A431 cell lysate)
Assay type: biochemical
Set-up: concentration or dose not given beside the values
Observable: Biochem EGFR %Inhibition

CC(=O)Oc1ccc(C=C2C(=O)Nc3ccc(Br)c(C)c32)cc1OC(C)=O [10723/C05] = 35.2%
CCn1c2ccccc2c2cc(C=C3C(=O)Nc4ccc(CCCl)cc43)ccc21 [10731/G02] = 4.7%
O=C1Nc2ccc(S(=O)(=O)Nc3ccc(C(F)(F)F)cc3)cc2C1=Cc1ccccc1O [10720/E05] = 40.7%
COc1cc(C=C2C(=O)Nc3ccc(S(=O)(=O)Nc4ccc(C(F)(F)F)cc4)cc32)cc(OC)c1 [10728/E04] = 10.1%
COc1ccc(C=C2C(=O)Nc3ccc(I)cc32)cc1 [10726/B11] = 39.4%
O=C1Nc2ccc(S(=O)(=O)Nc3ccc(C(F)(F)F)cc3)cc2C1=Cc1coc2ccccc2c1=O [10727/E07] = 7.1%
O=C1Nc2ccc(I)cc2C1=Cc1ccc(N2CCOCC2)cc1 [10725/B08] = 41.8%
Cc1cc(C=C2C(=O)Nc3ccc(S(=O)(=O)Nc4ccc(C(F)(F)F)cc4)cc32)cc(C(C)(C)C)c1O [10726/E04] = 53.0%
O=C1Nc2c(Br)cc(Br)cc2C1=Cc1cc(Br)ccc1O [10733/A09] = 25.9%
O=C1Nc2ccc(CCCl)cc2C1=Cc1cc(Cl)cc(Cl)c1O [10734/G03] = 82.8%
COC1CC(C=C2C(=O)Nc3ccc(Br)c(C)c32)C(OC)O1 (stereo not drawn) [10730/C10] = 20.5%
O=C1Nc2c(Br)cc(Br)cc2C1=Cc1csc([N+](=O)[O-])c1 [10722/A09] = 16.8%
CC(C)(C)c1cc(C=C2C(=O)Nc3ccc(I)cc32)cc(C(C)(C)C)c1O [10721/B11] = 34.6%
CCOc1cc(C=C2C(=O)Nc3ccc(Br)c(C)c32)ccc1O [10720/C09] = 44.7%
O=C1Nc2ccc(CCCl)cc2C1=Cc1ccc(F)cc1C(F)(F)F [10719/G11] = -44.1%
CC(C)c1cc(C=C2C(=O)Nc3ccc(I)cc32)cc(C(C)C)c1Oc1ccccc1 [10732/B04] = -22.1%
COc1ccc(C=C2C(=O)Nc3ccc(Br)c(C)c32)c(OC)c1OC [10730/C02] = 2.7%
Cc1[nH]c(C=C2C(=O)Nc3ccc(CCCl)cc32)c(Br)c1Br [10717/G11] = 71.7%

* * *

Molecular target: FLK-1 receptor (Mus musculus)
Construct: expressed in transfected cells; host or cells: NIH3T3 C7#3
Sequence (P35918 20-1345): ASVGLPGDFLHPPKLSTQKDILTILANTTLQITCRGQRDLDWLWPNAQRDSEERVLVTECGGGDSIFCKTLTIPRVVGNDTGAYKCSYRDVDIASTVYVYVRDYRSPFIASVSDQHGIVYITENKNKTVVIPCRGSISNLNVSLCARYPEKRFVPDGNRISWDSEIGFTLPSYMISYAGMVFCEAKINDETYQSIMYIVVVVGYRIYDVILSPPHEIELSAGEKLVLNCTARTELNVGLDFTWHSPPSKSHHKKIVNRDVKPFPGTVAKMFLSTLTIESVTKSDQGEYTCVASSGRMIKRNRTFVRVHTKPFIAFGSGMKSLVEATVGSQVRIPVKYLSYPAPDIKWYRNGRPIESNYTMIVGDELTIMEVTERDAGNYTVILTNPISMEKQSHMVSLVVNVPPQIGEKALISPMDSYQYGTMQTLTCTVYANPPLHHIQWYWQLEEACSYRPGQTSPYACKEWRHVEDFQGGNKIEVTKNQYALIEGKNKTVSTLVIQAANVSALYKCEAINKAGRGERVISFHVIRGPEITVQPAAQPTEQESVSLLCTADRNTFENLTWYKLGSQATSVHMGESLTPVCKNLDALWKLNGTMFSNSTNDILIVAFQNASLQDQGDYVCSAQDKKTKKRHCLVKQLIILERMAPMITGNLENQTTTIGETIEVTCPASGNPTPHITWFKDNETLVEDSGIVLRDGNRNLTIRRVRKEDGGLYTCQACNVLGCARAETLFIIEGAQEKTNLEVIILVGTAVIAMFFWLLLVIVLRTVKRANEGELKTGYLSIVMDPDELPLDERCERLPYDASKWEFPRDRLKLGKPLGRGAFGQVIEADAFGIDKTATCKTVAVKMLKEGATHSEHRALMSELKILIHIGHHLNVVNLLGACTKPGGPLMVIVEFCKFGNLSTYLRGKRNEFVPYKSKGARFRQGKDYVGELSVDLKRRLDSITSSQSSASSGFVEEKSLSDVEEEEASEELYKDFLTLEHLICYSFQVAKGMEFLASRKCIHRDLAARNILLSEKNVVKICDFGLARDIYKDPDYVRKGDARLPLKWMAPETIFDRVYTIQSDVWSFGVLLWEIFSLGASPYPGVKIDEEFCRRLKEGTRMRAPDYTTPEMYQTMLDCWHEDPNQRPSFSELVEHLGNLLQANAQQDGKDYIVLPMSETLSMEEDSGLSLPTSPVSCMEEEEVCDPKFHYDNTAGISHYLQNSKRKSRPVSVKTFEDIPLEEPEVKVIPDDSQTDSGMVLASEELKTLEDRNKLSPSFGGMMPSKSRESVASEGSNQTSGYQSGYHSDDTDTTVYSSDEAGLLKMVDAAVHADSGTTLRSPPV
Assay: FLK-1 ELISA (kinase activity of the FLK-1 receptor in FLK-1/NIH3T3 cells, VEGF stimulated)
Format: cell-based
Observable: Fik Kinase %Inhibition (%)

COc1c(Br)cc(C=C2C(=O)Nc3ccc(Br)c(C)c32)cc1C(C)(C)C [10732/C07] = 15.4
COc1cccc(C=C2C(=O)Nc3c(Br)cc(Br)cc32)c1O [10723/A03] = 1.2
CNS(=O)(=O)c1ccc2c(c1)C(=Cc1ccc(OC)c(C(C)(C)C)c1)C(=O)N2 [10732/D05] = 15.7
COc1ccc(O)c(C=C2C(=O)Nc3c(Br)cc(Br)cc32)c1 [10720/A10] = -5.2
CCc1ccc(C=C2C(=O)Nc3ccc(Br)c(C)c32)s1 [10726/C10] = 5.5
O=C1Nc2ccc(S(=O)(=O)Nc3ccc(C(F)(F)F)cc3)cc2C1=Cc1ccc(O)c(O)c1 [10719/E03] = 17.1
O=C1Nc2ccc(S(=O)(=O)Nc3ccc(C(F)(F)F)cc3)cc2C1=Cc1c(F)cccc1C(F)(F)F [10728/E09] = 9.0
O=C1Nc2ccc(S(=O)(=O)Nc3ccc(C(F)(F)F)cc3)cc2C1=Cc1ccc(F)cc1C(F)(F)F [10719/E11] = 26.3
